molecular target: CHOK1 cells engineered to overexpress human CCR2 (Homo sapiens); construct: expressed in transfected cells; host or cells: CHOK1 cells; assay: Antibody dependent cellular cytotoxicity (ADCC) reporter assay (Example 199); type: cell-based; conditions: with anti-cotinine antibody SEQ ID NO: 11/12; CHOK1-human CCR2 target cells, Jurkat FcγRIIIa NFAT-luciferase reporter cells; 12-18 hours; read-out: ADCC Reporter Assay pEC50 (converted)
Measured property: EC50
Output should be the measured figure followed by the unit it is expressed in.

Answered cases to consult:
>  <Chem smiles>
CC(C)N(C)[C@@H]1CC[C@H](N2CC[C@H](Nc3ncnc4ccc(C(F)(F)F)cc34)C2=O)[C@H](NC(=O)c2ccc(NCCOCCOCCOCCOCCNC(=O)[C@H]3CC(=O)N(C)[C@@H]3c3cccnc3)nc2)C1

>  <EC50>
1 nM

$$$$
>  <Chem smiles>
CC(C)N(C)[C@@H]1CC[C@H](N2CC[C@H](Nc3ncnc4ccc(C(F)(F)F)cc34)C2=O)[C@H](NC(=O)CCOCCNC(=O)COCCNC(=O)COCCNC(=O)[C@H]2CC(=O)N(C)[C@@H]2c2cccnc2)C1

>  <EC50>
1.26 nM

$$$$
>  <Chem smiles>
CC(C)N(C)[C@@H]1CC[C@H](N2CC[C@H](Nc3ncnc4ccc(C(F)(F)F)cc34)C2=O)[C@H](NC(=O)CCCOC[C@H]2CC[C@H](COCCNC(=O)[C@H]3CC(=O)N(C)[C@@H]3c3cccnc3)CC2)C1

>  <EC50>
50.1 nM

$$$$
>  <Chem smiles>
CC(C)N(C)[C@@H]1CC[C@H](N2CC[C@H](Nc3ncnc4ccc(C(F)(F)F)cc34)C2=O)[C@H](NC(=O)[C@H]2CC[C@H](NC(=O)CCOCCOCCOCCNC(=O)[C@H]3CC(=O)N(C)[C@@H]3c3cccnc3)CC2)C1

>  <EC50>
7.53 nM

$$$$
>  <Chem smiles>
CC(C)N(C)[C@@H]1CC[C@H](N2CC[C@H](Nc3ncnc4ccc(C(F)(F)F)cc34)C2=O)[C@H](NC(=O)c2ccc(N3CCC(C(=O)NCCOCCOCCNC(=O)[C@H]4CC(=O)N(C)[C@@H]4c4cccnc4)CC3)cc2)C1

>  <EC50>
3.98 nM

$$$$

Lookup: Fill blank: measured EC50 of the molecule CC(C)N(C)[C@@H]1CC[C@H](N2CC[C@H](Nc3ncnc4ccc(C(F)(F)F)cc34)C2=O)[C@H](NC(=O)COCCNC(=O)COCCNC(=O)COCCNC(=O)[C@H]2CC(=O)N(C)[C@@H]2c2cccnc2)C1 is ____.
Found: 6.31 nM

Lookup: Find the recorded EC50 belonging to CC(C)N(C)[C@@H]1CC[C@H](N2CC[C@H](Nc3ncnc4ccc(C(F)(F)F)cc34)C2=O)[C@H](NC(=O)[C@H]2CC[C@@H](NC(=O)CNC(=O)CCOCCOCCNC(=O)[C@H]3CC(=O)N(C)[C@@H]3c3cccnc3)CC2)C1 and report it.
Found: 0.269 nM

Lookup: Could you tell me which EC50 is on file for CC(C)N(C)[C@@H]1CC[C@H](N2CC[C@H](Nc3ncnc4ccc(C(F)(F)F)cc34)C2=O)[C@H](NC(=O)CCCCCCCCNCCOCCOCCOCCOCCNC(=O)[C@H]2CC(=O)N(C)[C@@H]2c2cccnc2)C1 ?
Found: 0.158 nM

Lookup: Any idea what EC50 was measured for CC(C)N(C)[C@@H]1CC[C@H](N2CC[C@H](Nc3ncnc4ccc(C(F)(F)F)cc34)C2=O)[C@H](NC(=O)C2CCN(CCOCCOCCOCCOCCNC(=O)[C@H]3CC(=O)N(C)[C@@H]3c3cccnc3)CC2)C1 ?
Found: 1.26 nM
